# Test target: DRB1*0901 (Homo sapiens, UniProt P01903+P01911, A100R/A103E/D57H/D86V/F55Y/F60I/F76Y/I96F/K127E/L162R/M171V/P40D/Q125H/Q99R/R33Q/R42F/S133A/S66N/T210M/V115G/W38K/Y107V/Y59G/Y89S)
# Assay summary: biochemical
# Format: binding
pIC50: −log10 of the molar value.
Measurement type: pIC50

q: // fetch pIC50 given entry CC[C@H](C)[C@H](NC(=O)[C@H](CCC(=O)O)NC(=O)[C@H](CC(N)=O)NC(=O)CNC(=O)[C@H](CC(=O)O)NC(=O)[C@H](CCC(=O)O)NC(=O)[C@H](CC(N)=O)NC(=O)[C@@H](NC(=O)[C@@H](NC(=O)[C@H](CO)NC(=O)[C@@H](NC(=O)[C@@H](N)Cc1ccc(O)cc1)[C@@H](C)CC)[C@@H](C)CC)[C@@H](C)CC)C(=O)N[C@@H](Cc1ccccc1)C(=O)N[C@@H](CC(N)=O)C(=O)N[C@H](C(=O)O)[C@@H](C)O [Peptide 68.0165]
a: < 4.70
